FYI, the data here is from PubChem BioAssay (NCI).

- System: U251 CNS
- assayProcedure: NCI tumour cell line growth inhibition, 48 h
I'd appreciate it if you could supply TGI values for the items below.

Value of TGI reported for the compound CCCN(CCC)C(=O)c1c([N+](=O)[O-])cc(C(F)(F)F)cc1[N+](=O)[O-] is > 100 µM

Value of TGI reported for the compound CCOC(=O)c1ccc(NCc2ccc3oc(=O)c(-c4ccccc4)nc3c2)cc1 is > 100 µM

Value of TGI reported for the compound CC(CC[C@@]1(C)C(=O)CCC2O[C@]21C)[C@H]1C[C@@H](c2ccoc2)OC1=O (stereo not given in full) is > 100 µM

Value of TGI reported for the compound CCc1nc2cc(F)c(/C=C/C(=O)NO)cc2c(=O)n1CCc1ccccc1 is 0.891 µM

Value of TGI reported for the compound O=C1NC2O[C@H](CNC(=O)c3cc(Br)c[nH]3)CC2(O)N1 (mixture of isomers) is > 100 µM

Value of TGI reported for the compound CN(C)CCNc1ccc(CO)c2oc3ccc(O)cc3c(=O)c12 is 45.7 µM

Value of TGI reported for the compound COc1ccc(C(=O)c2cc(C)c(OC)c(C)c2)c(OC)c1O is > 100 µM

Value of TGI reported for the compound N#C[C@@H](c1ccccn1)c1ncccc1[N+](=O)[O-] is > 100 µM

Value of TGI reported for the compound O=S(=O)(c1ccc(NC(=S)NC23CC4CC(CC(C4)C2)C3)cc1)N1CCCCC1 is 13.3 µM

Value of TGI reported for the compound COc1ccc2c3c([nH]c2c1[N+](=O)[O-])C(C)N(C)CC3 (stereo not given) is > 100 µM

Value of TGI reported for the compound O=C1c2ccccc2C(=O)N1CCCCNOCCCN1C(=O)c2ccccc2C1=O is > 100 µM

Value of TGI reported for the compound CCCCCCc1cc(C(=O)Nc2ccc(Cl)cc2)nc(=S)[nH]1 is > 100 µM

Value of TGI reported for the compound CC(=O)O[C@H]1C(=O)[C@@]2(C)[C@H]([C@H](OC(=O)c3ccoc3)[C@]3(O)C[C@H](OC(=O)[C@H](O)[C@@H](NC(=O)c4ccccc4)c4ccccc4)C(C)=C1C3(C)C)[C@]1(OC(C)=O)CO[C@@H]1C[C@@H]2O is > 12.5 µM

Value of TGI reported for the compound CN(Cc1ccccc1)C(=O)c1ccccc1C(=O)O is > 100 µM

Value of TGI reported for the compound CC1(C)C[C@@H]2C1CCC1(C)CC2(O)CC[C@H]1O (stereo not given in full) is > 100 µM
